System: A172 (Glioblastoma)
EXPERIMENT: combination Emax (second highest fraction inhibited in the dose matrix, 72 h); higher = more inhibition; extreme values may be limits of the assay
Please note: true applies when combination Emax is 0.6 or greater, and false applies otherwise.

[
  {
    "COMPOUND": "COc1nnc2ccc(N3CCC(c4ccc(OCCN5CCN(C)C(=O)[C@H]5C)cc4)CC3)nn12 [AZD5153] + C[C@@H]1COCCN1C2=NC(=NC(=C2)C3(CC3)[S@](=N)(=O)C)C4=C5C=CNC5=NC=C4 [AZD6738] (first compound max 1 µM, 7x7, partner max 10 µM)",
    "CLASS ASSIGNMENT": "true"
  },
  {
    "COMPOUND": "Cc1c2c(nn1C)CSCc1cc(n(C)n1)CSc1cc(c3ccccc3c1)OCCCc1c(C(=O)O)n(C)c3c-2c(Cl)ccc13 [AZD5991] + Cn1cnc2c(F)c(Nc3ccc(Br)cc3Cl)c(C(=O)NOCCO)cc21 [Selumetinib] (first compound max 1 µM, 7x7, partner max 3 µM)",
    "CLASS ASSIGNMENT": "false"
  },
  {
    "COMPOUND": "COc1cc2ncnc(Nc3ccc(F)c(Cl)c3)c2cc1OCCCN1CCOCC1 [Gefitinib] + CC(C)n1c(=O)n(C)c2cnc3cc(F)c(-c4ccc(OCCCN5CCCCC5)nc4)cc3c21 [AZD1390] (first compound max 10 µM, 7x7, partner max 0.3 µM)",
    "CLASS ASSIGNMENT": "false"
  },
  {
    "COMPOUND": "CC(=O)c1c(C)c2cnc(Nc3ccc(N4CCNCC4)cn3)nc2n(C2CCCC2)c1=O [Palbociclib] + CN(CC[C@H](CSC1=CC=CC=C1)NC2=C(C=C(C=C2)S(=O)(=O)NC(=O)C3=CC=C(C=C3)N4CCC(CC4)[C@H](C5=CC=CC=C5C6=CC=C(C=C6)Cl)O)S(=O)(=O)C(F)(F)F)CCO [AZD4320] (first compound max 10 µM, 7x7, partner max 1 µM)",
    "CLASS ASSIGNMENT": "true"
  },
  {
    "COMPOUND": "CN(CCO)CC[C@H](CSc1ccccc1)Nc1ccc(S(=O)(=O)NC(=O)c2ccc(N3CCC([C@@H](O)c4ccccc4-c4ccc(Cl)cc4)CC3)cc2)cc1S(=O)(=O)C(F)(F)F [AZD4320] + CCN(CCO)CCCOc1ccc2c(Nc3cc(CC(=O)Nc4cccc(F)c4)[nH]n3)ncnc2c1 [AZD2811] (first compound max 1 µM, 7x7, partner max 1 µM)",
    "CLASS ASSIGNMENT": "false"
  }
]

* * *

Test system: HCT-116 (Colorectal Carcinoma)
EXPERIMENT: Bliss excess, mean over the matrix (fraction); higher = more synergy
Each entry below carries its reported Bliss excess.
MEASURE: Bliss excess

[
  {
    "MOLECULE": "COc1cccc(OCCCN)c1-c1cc(Nc2cnc(C#N)cn2)n[nH]1 [Prexasertib] + O=C(c1cc(Cc2n[nH]c(=O)c3ccccc23)ccc1F)N1CCN(C(=O)C2CC2)CC1 [Olaparib] (first compound max 1 µM, 7x7, partner max 10 µM)",
    "NUMERIC VALUE": 0.0121
  },
  {
    "MOLECULE": "CN(CCO)CC[C@H](CSc1ccccc1)Nc1ccc(S(=O)(=O)NC(=O)c2ccc(N3CCC([C@@H](O)c4ccccc4-c4ccc(Cl)cc4)CC3)cc2)cc1S(=O)(=O)C(F)(F)F [AZD4320] + CS(=O)(=O)CCNCc1ccc(-c2ccc3ncnc(Nc4ccc(OCc5cccc(F)c5)c(Cl)c4)c3c2)o1 [Lapatinib] (first compound max 1 µM, 7x7, partner max 10 µM)",
    "NUMERIC VALUE": 0.0085
  }
]

* * *

System: PA-TU-8902 (Pancreatic Carcinoma)
EXPERIMENT: combination Emax (second highest fraction inhibited in the dose matrix, 72 h); higher = more inhibition; extreme values may be limits of the assay
combination Emax: recorded values

[
  {
    "MOLECULE": "Cc1c2c(nn1C)CSCc1cc(n(C)n1)CSc1cc(c3ccccc3c1)OCCCc1c(C(=O)O)n(C)c3c-2c(Cl)ccc13 [AZD5991] + Cc1cc2ncnn2cc1Nc1ncc2c(n1)n(C1CCOCC1)c(=O)n2C [AZD7648] (first compound max 1 µM, 7x7, partner max 10 µM)",
    "combination Emax": 0.321
  },
  {
    "MOLECULE": "C=CCn1c(=O)c2cnc(Nc3ccc(N4CCN(C)CC4)cc3)nc2n1-c1cccc(C(C)(C)O)n1 [AZD1775] + C1CN(CCC1(C(=O)N[C@@H](CCO)C2=CC=C(C=C2)Cl)N)C3=NC=NC4=C3C=CN4 [Capivasertib] (first compound max 3 µM, partner max 3 µM)",
    "combination Emax": 0.527
  },
  {
    "MOLECULE": "CN(CCO)CC[C@H](CSc1ccccc1)Nc1ccc(S(=O)(=O)NC(=O)c2ccc(N3CCC([C@@H](O)c4ccccc4-c4ccc(Cl)cc4)CC3)cc2)cc1S(=O)(=O)C(F)(F)F [AZD4320] + CN(C)CCCOc1ccc(-c2ccc3ncc4c(c3c2)n(C2CCOCC2)c(=O)n4C)cn1 [AZD0156] (first compound max 1 µM, 7x7, partner max 1 µM)",
    "combination Emax": 0.0883
  }
]

* * *

Tested on: JHH-6 (Hepatocellular Carcinoma)
EXPERIMENT: Bliss excess, mean over the matrix (fraction); higher = more synergy
The following molecules are listed with their measured Bliss excess values.

[
  {
    "MOLECULE": "CC1(C)CCC(CN2CCN(c3ccc(C(=O)NS(=O)(=O)c4ccc(NCC5CCOCC5)c([N+](=O)[O-])c4)c(Oc4cnc5[nH]ccc5c4)c3)CC2)=C(c2ccc(Cl)cc2)C1 [Venetoclax] + Cn1cnc2c(F)c(Nc3ccc(Br)cc3Cl)c(C(=O)NOCCO)cc21 [Selumetinib] (first compound max 1 µM, 7x7, partner max 3 µM)",
    "Bliss excess": -0.0252
  },
  {
    "MOLECULE": "Cc1c2c(nn1C)CSCc1cc(n(C)n1)CSc1cc(c3ccccc3c1)OCCCc1c(C(=O)O)n(C)c3c-2c(Cl)ccc13 [AZD5991] + C1CN(CCC1(C(=O)N[C@@H](CCO)C2=CC=C(C=C2)Cl)N)C3=NC=NC4=C3C=CN4 [Capivasertib] (first compound max 1 µM, 7x7, partner max 3 µM)",
    "Bliss excess": -0.0163
  },
  {
    "MOLECULE": "COc1cccc(OCCCN)c1-c1cc(Nc2cnc(C#N)cn2)n[nH]1 [Prexasertib] + Cc1cc2ncnn2cc1Nc1ncc2c(n1)n(C1CCOCC1)c(=O)n2C [AZD7648] (first compound max 1 µM, 7x7, partner max 10 µM)",
    "Bliss excess": 0.0194
  }
]

* * *

System: HuO9 (Osteosarcoma)
EXPERIMENT: combination Emax (second highest fraction inhibited in the dose matrix, 72 h); higher = more inhibition; extreme values may be limits of the assay
Mark no for combination Emax values under 0.9, and yes for everything at or above.

[
  {
    "MOLECULE": "CC(=O)c1c(C)c2cnc(Nc3ccc(N4CCNCC4)cn3)nc2n(C2CCCC2)c1=O [Palbociclib] + Cc1c2c(nn1C)CSCc1cc(n(C)n1)CSc1cc(c3ccccc3c1)OCCCc1c(C(=O)O)n(C)c3c-2c(Cl)ccc13 [AZD5991] (first compound max 10 µM, 7x7, partner max 1 µM)",
    "CLASS ASSIGNMENT": "no"
  },
  {
    "MOLECULE": "NC1(C(=O)N[C@@H](CCO)c2ccc(Cl)cc2)CCN(c2ncnc3[nH]ccc23)CC1 [Capivasertib] + C[C@@H]1COCCN1C2=NC(=NC(=C2)C3(CC3)[S@](=N)(=O)C)C4=C5C=CNC5=NC=C4 [AZD6738] (first compound max 10 µM, 7x7, partner max 10 µM)",
    "CLASS ASSIGNMENT": "no"
  },
  {
    "MOLECULE": "COc1nnc2ccc(N3CCC(c4ccc(OCCN5CCN(C)C(=O)[C@H]5C)cc4)CC3)nn12 [AZD5153] + CC1(C)CCC(CN2CCN(c3ccc(C(=O)NS(=O)(=O)c4ccc(NCC5CCOCC5)c([N+](=O)[O-])c4)c(Oc4cnc5[nH]ccc5c4)c3)CC2)=C(c2ccc(Cl)cc2)C1 [Venetoclax] (first compound max 1 µM, 7x7, partner max 1 µM)",
    "CLASS ASSIGNMENT": "no"
  },
  {
    "MOLECULE": "Cc1cc2ncnn2cc1Nc1ncc2c(n1)n(C1CCOCC1)c(=O)n2C [AZD7648] + CN(C)CCCOc1ccc(-c2ccc3ncc4c(c3c2)n(C2CCOCC2)c(=O)n4C)cn1 [AZD0156] (first compound max 10 µM, 7x7, partner max 1 µM)",
    "CLASS ASSIGNMENT": "no"
  },
  {
    "MOLECULE": "COc1cc2ncnc(Nc3ccc(F)c(Cl)c3)c2cc1OCCCN1CCOCC1 [Gefitinib] + CC(C)n1c(=O)n(C)c2cnc3cc(F)c(-c4ccc(OCCCN5CCCCC5)nc4)cc3c21 [AZD1390] (first compound max 10 µM, 7x7, partner max 0.3 µM)",
    "CLASS ASSIGNMENT": "no"
  },
  {
    "MOLECULE": "CN(CCO)CC[C@H](CSc1ccccc1)Nc1ccc(S(=O)(=O)NC(=O)c2ccc(N3CCC([C@@H](O)c4ccccc4-c4ccc(Cl)cc4)CC3)cc2)cc1S(=O)(=O)C(F)(F)F [AZD4320] + C[C@@H](Nc1cc(F)cc(F)c1)c1cc(C(=O)N(C)C)cc2c(=O)cc(N3CCOCC3)oc12 [AZD8186] (first compound max 1 µM, 7x7, partner max 3 µM)",
    "CLASS ASSIGNMENT": "yes"
  },
  {
    "MOLECULE": "CC1(C)CCC(CN2CCN(c3ccc(C(=O)NS(=O)(=O)c4ccc(NCC5CCOCC5)c([N+](=O)[O-])c4)c(Oc4cnc5[nH]ccc5c4)c3)CC2)=C(c2ccc(Cl)cc2)C1 [Venetoclax] + CN(C)CCCOc1ccc(-c2ccc3ncc4c(c3c2)n(C2CCOCC2)c(=O)n4C)cn1 [AZD0156] (first compound max 1 µM, 7x7, partner max 1 µM)",
    "CLASS ASSIGNMENT": "no"
  },
  {
    "MOLECULE": "CN(CCO)CC[C@H](CSc1ccccc1)Nc1ccc(S(=O)(=O)NC(=O)c2ccc(N3CCC([C@@H](O)c4ccccc4-c4ccc(Cl)cc4)CC3)cc2)cc1S(=O)(=O)C(F)(F)F [AZD4320] + C[C@@H]1COCCN1C2=NC(=NC(=C2)C3(CC3)[S@](=N)(=O)C)C4=C5C=CNC5=NC=C4 [AZD6738] (first compound max 1 µM, 7x7, partner max 10 µM)",
    "CLASS ASSIGNMENT": "yes"
  },
  {
    "MOLECULE": "CC1(C)CCC(CN2CCN(c3ccc(C(=O)NS(=O)(=O)c4ccc(NCC5CCOCC5)c([N+](=O)[O-])c4)c(Oc4cnc5[nH]ccc5c4)c3)CC2)=C(c2ccc(Cl)cc2)C1 [Venetoclax] + Cn1cnc2c(F)c(Nc3ccc(Br)cc3Cl)c(C(=O)NOCCO)cc21 [Selumetinib] (first compound max 1 µM, 7x7, partner max 3 µM)",
    "CLASS ASSIGNMENT": "no"
  },
  {
    "MOLECULE": "Cc1c2c(nn1C)CSCc1cc(n(C)n1)CSc1cc(c3ccccc3c1)OCCCc1c(C(=O)O)n(C)c3c-2c(Cl)ccc13 [AZD5991] + CCN(CCO)CCCOc1ccc2c(Nc3cc(CC(=O)Nc4cccc(F)c4)[nH]n3)ncnc2c1 [AZD2811] (first compound max 1 µM, 7x7, partner max 1 µM)",
    "CLASS ASSIGNMENT": "yes"
  },
  {
    "MOLECULE": "Cc1c2c(nn1C)CSCc1cc(n(C)n1)CSc1cc(c3ccccc3c1)OCCCc1c(C(=O)O)n(C)c3c-2c(Cl)ccc13 [AZD5991] + CN(C)CCCOc1ccc(-c2ccc3ncc4c(c3c2)n(C2CCOCC2)c(=O)n4C)cn1 [AZD0156] (first compound max 1 µM, 7x7, partner max 1 µM)",
    "CLASS ASSIGNMENT": "yes"
  },
  {
    "MOLECULE": "COc1nnc2ccc(N3CCC(c4ccc(OCCN5CCN(C)C(=O)[C@H]5C)cc4)CC3)nn12 [AZD5153] + Cc1c2c(nn1C)CSCc1cc(n(C)n1)CSc1cc(c3ccccc3c1)OCCCc1c(C(=O)O)n(C)c3c-2c(Cl)ccc13 [AZD5991] (first compound max 1 µM, 7x7, partner max 1 µM)",
    "CLASS ASSIGNMENT": "yes"
  }
]
